The values you see were collected from ChEMBL document CHEMBL1139781.

system.under.test: Insulin-like growth factor 1 receptor (Homo sapiens, UniProt P08069)
Sequence (P08069 31-736 limits assumed): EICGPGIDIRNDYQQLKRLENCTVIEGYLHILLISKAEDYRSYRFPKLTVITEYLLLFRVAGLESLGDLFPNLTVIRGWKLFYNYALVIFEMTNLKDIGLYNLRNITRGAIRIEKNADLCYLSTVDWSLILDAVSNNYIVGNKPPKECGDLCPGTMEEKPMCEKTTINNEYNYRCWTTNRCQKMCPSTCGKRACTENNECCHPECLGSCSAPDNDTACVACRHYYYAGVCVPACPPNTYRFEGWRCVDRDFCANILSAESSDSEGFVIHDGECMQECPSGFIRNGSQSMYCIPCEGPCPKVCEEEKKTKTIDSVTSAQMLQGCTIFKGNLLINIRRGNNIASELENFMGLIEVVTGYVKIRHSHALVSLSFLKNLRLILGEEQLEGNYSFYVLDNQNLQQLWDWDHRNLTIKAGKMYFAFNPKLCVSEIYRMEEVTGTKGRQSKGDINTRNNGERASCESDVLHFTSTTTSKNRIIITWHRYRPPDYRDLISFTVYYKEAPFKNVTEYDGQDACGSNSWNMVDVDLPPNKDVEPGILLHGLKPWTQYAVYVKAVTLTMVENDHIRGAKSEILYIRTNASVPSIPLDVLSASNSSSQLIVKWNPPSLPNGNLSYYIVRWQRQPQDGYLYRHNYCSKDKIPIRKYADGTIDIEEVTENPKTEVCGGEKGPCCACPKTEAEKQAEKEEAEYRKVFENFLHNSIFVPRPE
Sequence (P08069 741-1367 limits assumed): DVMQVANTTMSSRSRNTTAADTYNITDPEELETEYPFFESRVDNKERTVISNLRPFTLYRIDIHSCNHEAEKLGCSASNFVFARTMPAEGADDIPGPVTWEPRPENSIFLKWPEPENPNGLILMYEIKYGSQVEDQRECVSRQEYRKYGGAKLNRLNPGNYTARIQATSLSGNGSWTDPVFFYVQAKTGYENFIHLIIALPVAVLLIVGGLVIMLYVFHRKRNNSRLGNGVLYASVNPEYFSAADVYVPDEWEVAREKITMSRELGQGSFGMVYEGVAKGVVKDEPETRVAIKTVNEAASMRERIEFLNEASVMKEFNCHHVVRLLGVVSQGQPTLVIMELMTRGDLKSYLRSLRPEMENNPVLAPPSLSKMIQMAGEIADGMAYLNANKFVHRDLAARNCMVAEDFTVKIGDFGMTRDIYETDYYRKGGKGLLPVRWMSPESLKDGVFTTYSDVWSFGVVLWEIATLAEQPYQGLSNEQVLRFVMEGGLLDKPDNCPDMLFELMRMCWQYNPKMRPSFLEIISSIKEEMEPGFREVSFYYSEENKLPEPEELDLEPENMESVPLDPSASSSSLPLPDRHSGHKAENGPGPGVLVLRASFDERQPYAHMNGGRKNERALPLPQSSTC
method.summary: Inhibition IGF1R phosphorylation in human MiaPaCa2 cells
Format: cell-based
Reported pIC50 values for a set of compounds
The meaning of pIC50 here: minus log10 of the concentration in molar units.

Some entries whose results are on file:
Nc1ncnc2c1c(-c1ccc3nc(Cc4cc(F)cc(F)c4)[nH]c3c1)nn2[C@H]1CC[C@H](N2CCOCC2)CC1 6.74
Nc1ncnc2c1c(-c1ccc3nc(Cc4ccccc4F)[nH]c3c1)nn2[C@H]1CC[C@H](N2CCOCC2)CC1 6.77
Nc1ncnc2c1c(-c1ccc3nc(Cc4ccc(F)cc4)[nH]c3c1)nn2[C@H]1CC[C@H](N2CCOCC2)CC1 5.90
Nc1ncnc2c1c(-c1ccc3[nH]c(-c4ccccc4)nc3c1)nn2[C@H]1CC[C@H](N2CCOCC2)CC1 6.10
Cc1ccccc1Cc1nc2ccc(-c3nn([C@H]4CC[C@H](N5CCOCC5)CC4)c4ncnc(N)c34)cc2[nH]1 6.93
Nc1ncnc2c1c(-c1ccc3nc(Cc4ccccn4)[nH]c3c1)nn2[C@H]1CC[C@H](N2CCOCC2)CC1 5.58
Nc1ncnc2c1c(-c1ccc3nc(Cc4cccc(Cl)c4)[nH]c3c1)nn2[C@H]1CC[C@H](N2CCOCC2)CC1 6.43

Consider now this further compound.
Just so you know, measured pIC50 for Cc1nc(Cc2nc3ccc(-c4nn([C@H]5CC[C@H](N6CCOCC6)CC5)c5ncnc(N)c45)cc3[nH]2)cs1 came out at 5.81
